molecular target: LiTryR (Leishmania infantum, UniProt A4HSF7); construct: HIS (N); made in house; host or cells: E. coli BL21 (DE3) Rossetta; test: Time-dependent inhibition kinetics of LiTryR (modified DTNB-coupled assay); assay type: biochemical; conditions: [TS2] 100 μM; read-out: Ki^app
MEASURED QUANTITY: Ki (µM)
Kindly provide the numeric value in µM only, without the unit symbol.

IN: Form entry - test system: LiTryR (Leishmania infantum, UniProt A4HSF7); read-out: Ki; compound: NCCCCc1cn(-c2ccc(-c3nc(-c4ccccc4)c(-c4ccccc4)s3)c(OCCN3CCNC3=O)c2)nn1.O=C(O)C(F)(F)F [19a]
OUT: 5

---

target: LiTryR (Leishmania infantum, UniProt A4HSF7)
pIC50: −log10 of the molar value.
// label = true if pIC50 is not less than 5, otherwise false

Worked cases, answers included:
COMPOUND	CLASSIFICATION
NCCCCc1cn(-c2ccc(-c3nc(CCc4ccc5ccccc5c4)cs3)c(OCCN3CCNC3=O)c2)nn1.O=C(O)C(F)(F)F [12b]	true
NCCCCc1cn(-c2ccc(-c3nc(-c4cccc(-c5csc(-c6ccc(-n7cc(CCCCN)nn7)cc6OCCN6CCNC6=O)n5)c4)cs3)c(OCCN3CCNC3=O)c2)nn1.O=C(O)C(F)(F)F.O=C(O)C(F)(F)F	true

IN: # bool: pIC50 of COc1cc(-n2cc(CCCCN)nn2)ccc1-c1nc(CCc2ccc(-c3ccccc3)cc2)cs1.O=C(O)C(F)(F)F [12k] >= 5
OUT: false

IN: # bool: pIC50 of NCCCc1cn(-c2ccc(-c3nc(CCc4ccccc4)cs3)c(OCCN3CCNC3=O)c2)nn1.O=C(O)C(F)(F)F [12h] >= 5
OUT: false

IN: # bool: pIC50 of NCCNCc1nccn1-c1ccc(-c2nc(CCc3ccc4ccccc4c3)cs2)c(OCCN2CCNC2=O)c1 [compound 2, reference compound] >= 5
OUT: true

IN: # bool: pIC50 of `N#Cc1ccc(-n2cc(CCCCN)nn2)cc1OCCN1CCNC1=O` >= 5
OUT: false

IN: # bool: pIC50 of NCCCCc1cn(-c2ccc(-c3nc(CCc4ccc(Oc5ccccc5)cc4)c(-c4ccccc4)s3)c(OCCN3CCNC3=O)c2)nn1.O=C(O)C(F)(F)F [19e] >= 5
OUT: false

IN: # bool: pIC50 of NCCCCc1cn(-c2ccc(-c3nc(-c4ccc(Oc5ccccc5)cc4)c(-c4ccccc4)s3)c(OCCN3CCNC3=O)c2)nn1.O=C(O)C(F)(F)F [19c] >= 5
OUT: false

---

target: LiTryR dimer (Leishmania infantum, UniProt A4HSF7); experiment: biochemical; details: 400 nM LiTryR, 16 h at 37 °C; read-out: IC50^dim, LiTryR monomer displacement (dimer quantitation ELISA)
Sequence (A4HSF7 1-491): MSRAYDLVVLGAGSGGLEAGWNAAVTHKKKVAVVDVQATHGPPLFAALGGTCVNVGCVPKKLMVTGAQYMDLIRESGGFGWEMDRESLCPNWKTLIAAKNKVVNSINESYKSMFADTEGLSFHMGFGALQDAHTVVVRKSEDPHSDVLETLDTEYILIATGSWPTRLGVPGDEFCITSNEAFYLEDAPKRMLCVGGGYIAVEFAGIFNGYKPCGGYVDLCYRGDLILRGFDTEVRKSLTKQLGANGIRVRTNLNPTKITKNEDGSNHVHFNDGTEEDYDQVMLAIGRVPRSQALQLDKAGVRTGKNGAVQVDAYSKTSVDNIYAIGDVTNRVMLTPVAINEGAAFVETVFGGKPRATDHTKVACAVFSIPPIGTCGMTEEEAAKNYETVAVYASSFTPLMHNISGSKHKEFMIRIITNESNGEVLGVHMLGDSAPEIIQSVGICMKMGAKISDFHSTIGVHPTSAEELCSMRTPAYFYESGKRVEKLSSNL
Here, each record is paired with measured IC50 data.
Kindly provide the numeric value in µM only, without the unit symbol.

> print(dat)
                                   compound  measured.quantity  result
1  NCCCCc1cn(-c2ccc(-c3nc(-c4ccccc4)cs3)c(OCCN3CCNC3=O)c2)nn1.O=C(O)C(F)(F)F [12n]               IC50      29
2  NCCCCc1cn(-c2ccc(-c3nc(CCc4ccc5ccccc5c4)cs3)c(OCCN3CCNC3=O)c2)nn1.O=C(O)C(F)(F)F [12b]               IC50     7.1

Lab note: next compound to report on.
IN: Value lookup for IC50; key = NCCCc1cn(-c2ccc(-c3nc(CCc4ccc(-c5ccccc5)cc4)cs3)c(OCCN3CCNC3=O)c2)nn1.O=C(O)C(F)(F)F [12i]
OUT: 10.8
